Entries and their measured Human (% TO) 15 min follow.
# System: cryopreserved hepatocytes of human subjects
# Procedure Details: metabolic stability in human hepatocytes
# Type: in vitro ADME
# Protocol Conditions: 1 μM, 15 min incubation, percentage turnover
Property Name: Human (% TO) 15 min

> print(dat)
                                   molecule                               target.desc  experimental.result
1  CCN1C[C@H](C)n2c(c(O)c3c(=O)n4nc(c32)N2CCN(CC2)C(=O)CCCOc2cc(F)ccc2C4)C1=O [Compound 44]  cryopreserved hepatocytes of human subjects              20 % TO
2  CCN1C[C@H](C)n2c(c(O)c3c(=O)n4nc(c32)N(C)S(=O)(=O)CCCCOc2cc(F)ccc2C4)C1=O [Compound 1]  cryopreserved hepatocytes of human subjects              16 % TO
3  CCN1C[C@H](C)n2c(c(O)c3c(=O)n4nc(c32)N(C)S(=O)(=O)CCCCCOc2cc(F)ccc2C4)C1=O [Compound 5]  cryopreserved hepatocytes of human subjects              12 % TO
4  CCN1C[C@H](C)n2c(c(O)c3c(=O)n(Cc4ccc(F)c(Cl)c4)nc(C(=O)NC)c32)C1=O [Compound 52r, reference compound]  cryopreserved hepatocytes of human subjects              25 % TO
5  CCN1C[C@@H](C)n2c(c(O)c3c(=O)n(Cc4ccc(F)c(Cl)c4)nc(N4CCN(C)S4(=O)=O)c32)C1=O [Compound 54r, reference compound]  cryopreserved hepatocytes of human subjects              16 % TO
6  CC(C)N1C[C@H](C)n2c(c(O)c3c(=O)n4nc(c32)N(C)S(=O)(=O)CCCCOc2cc(F)ccc2C4)C1=O [Compound 6]  cryopreserved hepatocytes of human subjects              23 % TO
7  CC(C)N1C[C@H](C)n2c(c(O)c3c(=O)n4nc(c32)N(C)S(=O)(=O)CCCCCOc2cc(F)ccc2C4)C1=O [Compound 7]  cryopreserved hepatocytes of human subjects               2 % TO
8  CCN1C[C@H](C)n2c(c(O)c3c(=O)n4nc(c32)N(C)S(=O)(=O)CCCCOCc2cc(F)ccc2C4)C1=O [Compound 48]  cryopreserved hepatocytes of human subjects              38 % TO
9  CCN1C[C@H](C)n2c(c(O)c3c(=O)n(Cc4ccc(F)cc4)nc(N(C)S(C)(=O)=O)c32)C1=O [Compound 53r, reference compound]  cryopreserved hepatocytes of human subjects              41 % TO

----------
# Procedure Details: pharmacokinetic evaluation in the rat
# Assay type: in vivo, male Sprague-Dawley rats
# Protocol Conditions: male, Sprague-Dawley, plasma, iv, 2 mg/kg, intravenous bolus 2 mg/kg, terminal phase elimination half-life
Entries and their measured half-life follow.
Property Name: half-life

> print(dat)
                                   molecule  property.name  experimental.result
1  CCN1C[C@H](C)n2c(c(O)c3c(=O)n(Cc4ccc(F)c(Cl)c4)nc(C(=O)NC)c32)C1=O [Compound 52r, reference compound]      half-life                1.6 h
2  CCN1C[C@@H](C)n2c(c(O)c3c(=O)n(Cc4ccc(F)c(Cl)c4)nc(N4CCN(C)S4(=O)=O)c32)C1=O [Compound 54r, reference compound]      half-life                1.5 h
3  CCN1C[C@H](C)n2c(c(O)c3c(=O)n4nc(c32)C(=O)NCCCCCOc2cc(F)ccc2C4)C1=O      half-life                4.4 h
4  CCN1C[C@H](C)n2c(c(O)c3c(=O)n(Cc4ccc(F)cc4)nc(N(C)S(C)(=O)=O)c32)C1=O [Compound 53r, reference compound]      half-life                1.7 h
5  CCN1C[C@H](C)n2c(c(O)c3c(=O)n4nc(c32)N(C)S(=O)(=O)CCCCOc2cc(F)ccc2C4)C1=O      half-life                4.8 h
